Source: patent US12624112

# measured_target: T1, ST2 on the effector cells (KU812, KU812/NF-κB-1#, HUVEC, HMC-1) (human, UniProt Q01638 19-556)
# T1 sequence (looked up): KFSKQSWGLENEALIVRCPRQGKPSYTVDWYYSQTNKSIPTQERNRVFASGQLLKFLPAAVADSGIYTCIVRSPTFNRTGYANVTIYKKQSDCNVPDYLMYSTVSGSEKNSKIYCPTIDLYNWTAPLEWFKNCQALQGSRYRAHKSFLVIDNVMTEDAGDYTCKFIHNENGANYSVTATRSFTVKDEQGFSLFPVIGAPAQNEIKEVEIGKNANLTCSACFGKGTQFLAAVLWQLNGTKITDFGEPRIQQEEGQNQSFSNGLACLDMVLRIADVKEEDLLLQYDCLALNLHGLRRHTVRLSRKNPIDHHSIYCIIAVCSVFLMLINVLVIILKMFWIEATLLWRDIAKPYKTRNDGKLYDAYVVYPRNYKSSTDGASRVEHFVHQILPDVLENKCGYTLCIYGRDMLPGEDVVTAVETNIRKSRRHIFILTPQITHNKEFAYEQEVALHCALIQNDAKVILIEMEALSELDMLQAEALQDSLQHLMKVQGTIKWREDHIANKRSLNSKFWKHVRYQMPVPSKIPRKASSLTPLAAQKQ
# protocol_description: cell-based or functional assay
Think of 90% as a floor: if Maximum inhibition rate, HUVEC-IL6 production by IL33 stands on it or above, it is 1; beneath it, 0.

Exam item: Say whether 5888-379-H1L0 (antibody, human IgG4 S228P, kappa, V domains shown, Humanized antibody) VH: QVQLVQSGAEVKKPGASVKVSCKASGYTFINYGMNWVRQAPGQRLEWMGWINTYIGEPTYGDNFKGRVTITRDTSASTAYMELSSLRSEDTAVYYCAREGEGFAYWGQGTLVTVSS VL: DIQMTQSPSSLSASVGDRVTITCKSSQSLLYSGNQNNYLAWYQQKPGKVPKLLIYGASTRESGVPSRFSGSGSGTDFTLTISSLQPEDVATYYCQNDHSYPYTFGGGTKVEIKR shows Maximum inhibition rate, HUVEC-IL6 production by IL33 of 90% or more.
Marked response: 0

Exam item: Reported Maximum inhibition rate, HUVEC-IL6 production by IL33 at or above 90%? 5888-153-H3L1 (antibody, human IgG4 S228P, kappa, V domains shown, Humanized antibody) VH: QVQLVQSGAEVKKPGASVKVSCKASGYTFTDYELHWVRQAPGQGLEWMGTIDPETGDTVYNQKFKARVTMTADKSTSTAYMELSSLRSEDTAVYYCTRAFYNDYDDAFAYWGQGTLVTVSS VL: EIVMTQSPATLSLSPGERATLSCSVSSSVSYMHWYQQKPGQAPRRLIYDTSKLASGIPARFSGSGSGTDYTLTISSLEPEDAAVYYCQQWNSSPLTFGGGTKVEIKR
Marked response: 1

Exam item: Kindly determine if Maximum inhibition rate, HUVEC-IL6 production by IL33 recorded for Control antibody CNTO7160 (antibody, human IgG4 S228P, kappa, V domains shown, Known anti-ST2 control antibody) VH: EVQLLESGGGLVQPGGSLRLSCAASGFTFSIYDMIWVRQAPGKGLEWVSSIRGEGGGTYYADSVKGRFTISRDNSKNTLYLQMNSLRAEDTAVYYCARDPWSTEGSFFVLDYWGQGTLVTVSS VL: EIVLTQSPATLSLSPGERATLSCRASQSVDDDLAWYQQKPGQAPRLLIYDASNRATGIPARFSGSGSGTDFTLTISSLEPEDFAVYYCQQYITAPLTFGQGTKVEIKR is above or exactly 90%.
Marked response: 0
